Assay: Example 2 plasma pharmacokinetics, normal renal function vs severe renal impairment
Settings: both, human, plasma, inhaled or intranasal, 160 mg, AUC0→t (Median), severe renal impairment; single intranasal 160 mg cocaine HCl
endpoint_label: AUC(0-t) (ng·h/mL)
Use ng·h/mL as the unit, but write only the number.

### Prompt Return the recorded AUC(0-t) value; entry: COC(=O)[C@H]1[C@@H](OC(=O)c2ccccc2)C[C@@H]2CC[C@H]1N2C [Cocaine, cocaine, reference compound]
### Response 109

###

Test: Example 3 plasma pharmacokinetics, normal hepatic function vs hepatic impairment
Conditions: both, human, plasma, inhaled or intranasal, 160 mg, AUC0→∞ (Median), hepatic impairment; single intranasal 160 mg cocaine HCl
endpoint_label: AUC(0-inf)

### Prompt Give the measured AUC(0-inf) for COC(=O)[C@H]1[C@@H](OC(=O)c2ccccc2)C[C@@H]2CC[C@H]1N2C [Cocaine, cocaine, reference compound]
### Response 177 ng·h/mL

###

Assay: Example 3 plasma pharmacokinetics, normal hepatic function vs hepatic impairment
Conditions: both, human, plasma, inhaled or intranasal, 160 mg, t1/2 (Mean), hepatic impairment; single intranasal 160 mg cocaine HCl
endpoint_label: half-life

### Prompt Output half-life of COC(=O)[C@H]1[C@@H](OC(=O)c2ccccc2)C[C@@H]2CC[C@H]1N2C [Cocaine, cocaine, reference compound]
### Response 5.42 h

###

Assay: Example 3 plasma pharmacokinetics, normal hepatic function vs hepatic impairment
Conditions: both, human, plasma, inhaled or intranasal, 160 mg, t1/2 (Median), normal hepatic function; single intranasal 160 mg cocaine HCl
endpoint_label: half-life (h)
Express the result in h but write the number alone.

### Prompt In one line, give reported half-life of the entry COC(=O)[C@H]1[C@@H](OC(=O)c2ccccc2)C[C@@H]2CC[C@H]1N2C [Cocaine, cocaine, reference compound] .
### Response 6.93

###

Assay: Example 3 plasma pharmacokinetics, normal hepatic function vs hepatic impairment
Settings: both, human, plasma, inhaled or intranasal, 160 mg, AUC0→∞ (Median), normal hepatic function; single intranasal 160 mg cocaine HCl
endpoint_label: AUC(0-inf) (ng·h/mL)
Return type: number; implicit unit ng·h/mL.

### Prompt Note AUC(0-inf) for the compound shown: COC(=O)[C@H]1[C@@H](OC(=O)c2ccccc2)C[C@@H]2CC[C@H]1N2C [Cocaine, cocaine, reference compound]
### Response 83.3

###

Test: Example 2 urinary pharmacokinetics, normal renal function vs severe renal impairment
Conditions: human, urine and plasma, inhaled or intranasal, 160 mg, Renal Clearance (geometric mean), severe renal impairment; single intranasal 160 mg cocaine HCl
Protocol: For the urine analysis of cocaine, BE, and EME, individual urinary recoveries for each analyte were determined over each collection interval as the product of the urine concentration times the urine volume. The total recoveries were determined as the sum of the recoveries over all the intervals. Total urinary recoveries were also expressed as the percentage of the administered dose, after correction for the molecular weight of each analyte. […]
endpoint_label: CL renal (mL/min)
Give the value in mL/min but do not write mL/min after it.

### Prompt Return reported CL renal. Input compound: COC(=O)[C@H]1[C@@H](OC(=O)c2ccccc2)C[C@@H]2CC[C@H]1N2C [Cocaine, cocaine, reference compound]
### Response 17.3

###

Test: Example 3 plasma pharmacokinetics, normal hepatic function vs hepatic impairment
Conditions: both, human, plasma, inhaled or intranasal, 160 mg, t1/2 (Geometric mean), normal hepatic function; single intranasal 160 mg cocaine HCl
endpoint_label: half-life (h)
Your answer should be a plain number; it is taken to be in h.

### Prompt Please supply the value of reported half-life for the item COC(=O)[C@H]1[C@@H](OC(=O)c2ccccc2)C[C@@H]2CC[C@H]1N2C [Cocaine, cocaine, reference compound]
### Response 6.62
